Values were extracted from patent US20070020327A1.

I'd appreciate it if you could supply IC50 values for the items below.
# Tgt: HLA-A*0203 (human)
# Assay explanation: competitive inhibition of 125I-labelled standard peptide binding to purified HLA
The response must be a number in nM with no trailing unit.

The binder listed as LVCNGVLQGV (modifications not checked) [Peptide 1418.55, … (PSA.213.V10)] has a reported IC50 of 12

The binder listed as FLTLSVTWIGV (modifications not checked) [Peptide 63.0186, … (PSA.3.V11)] has a reported IC50 of 18
